Hey, just so you know, these numbers are from patent US20230091047A1.

Parameter: CC50 at 3 days. Scope: all listed entries.
Method notes: in vitro
Type: cell-based
Condition set: human, HepG2 or HepG2.117 cells, 3-days incubation (unmarked values), ATPlite; mean value
Express your answer in µM, writing the number without its unit.

smiles_string=COc1ccc(CNc2nc3c(c(=O)n2-c2cccnc2)CCN(C(=O)c2ccc(Cl)c(Cl)c2)C3)cc1 endpoint_name="CC50 at 3 days" result_number=22.4

Turning now to a further record.
Lookup: Quick one: CC50 at 3 days of CNC(=O)c1ccc(-n2c(NCc3ccc4cc[nH]c4c3)nc3c(c2=O)C[C@@H](C)N(C(=O)c2ccc(Cl)c(Cl)c2)C3)cc1 ?
Found: 22.8

---

Test system: HBV (HepG2.117 cell line, inducibly HBV producing)
Method notes: Anti-HBV activity: intracellular HBV DNA by real-time PCR in HepG2.117 cells after 3 days of treatment
Format: cell-based, hepatitis B virus
Condition set: Hepatitis B virus, HepG2.117, 72 h, HepG2.117 cells, 3 days of treatment, intracellular HBV DNA by real-time PCR; mean value; read-out: EC50 (μM, mean value)
Endpoint name: EC50 (µM)
Express your answer in µM, writing the number without its unit.

Illustrative cases are given below, each with its answer.
compound="CC(C)Nc1nc2c(c(=O)n1-c1ccc(S(C)(=O)=O)cc1)C(C)CN(C(=O)c1ccc(Cl)c(Cl)c1)C2 (stereo not shown) [Compound C154]" unit=µM result_number=0.52
compound="COc1ccc(CNc2nc3c(c(=O)n2C2CCOCC2)CCN(C(=O)c2ccc(Cl)c(Cl)c2)C3)cc1 [Compound C93]" unit=µM result_number=1.73
compound="CNC(=O)c1ccc(-n2c(NC3CC3(C)C)nc3c(c2=O)C[C@@H](C)N(C(=O)c2ccc(Cl)c(Cl)c2)C3)cc1 (stereo partly shown) [Compound C333]" unit=µM result_number=1.64

Lookup: Quick one: EC50 of CNC(=O)c1ccc(-n2c(NC3(C)CC3)nc3c(c2=O)C[C@@H](C)N(C(=O)c2ccc(Cl)c(Cl)c2)C3)cc1 [Compound C297] ?
Found: 0.05

Lookup: Entry to check: COc1ccccc1-n1c(NC(C)(C)C)nc2c(c1=O)CCN(C(=O)c1ccc(Cl)c(Cl)c1)C2 [Compound C53]
Found: 2.05

Lookup: Entry to check: COc1ccc(CNc2nc3c(c(=O)n2-c2ccc(S(C)(=O)=O)cc2)C[C@@H](C)N(C(=O)c2ccc(Cl)c(Cl)c2)C3)cc1 [Compound C145]
Found: 0.31

---

Parameter: CC50 at 3 days. Scope: all listed entries.
Method notes: in vitro
Assay type: cell-based
Condition set: human, HepG2 or HepG2.117 cells, 3-days incubation (unmarked values), ATPlite; mean value

Illustrative cases are given below, each with its answer.
compound=CNC(=O)c1ccc(-n2c(N[C@@H](C)CCO)nc3c(c2=O)C[C@@H](C)N(C(=O)c2ccc(Cl)c(Cl)c2)C3)cc1 result="> 50 µM"
compound="CNC(=O)c1ccc(-n2c(N3CC[C@H]3C)nc3c(c2=O)C[C@@H](C)N(C(=O)c2ccc(Cl)c(Cl)c2)C3)cc1 (single isomer, unassigned)" result="> 50 µM"

Lookup: Quick one: CC50 at 3 days of Cc1noc(-c2ccc(-n3c(NC(C)C)nc4c(c3=O)C[C@@H](C)N(C(=O)c3ccc(Cl)c(Cl)c3)C4)cc2)n1 ?
Found: > 50 µM

Lookup: Entry to check: CNC(=O)c1ccc(-n2c(N3CCC[C@H]3C)nc3c(c2=O)C[C@@H](C)N(C(=O)c2ccc(Cl)c(Cl)c2)C3)cc1
Found: 25.9 µM

Lookup: Entry to check: CNC(=O)c1ccc(-n2c(N3CCC[C@@H]3C)nc3c(c2=O)C[C@@H](C)N(C(=O)c2ccc(Cl)c(Cl)c2)C3)cc1
Found: 24.9 µM

Lookup: Entry to check: C#C[C@H](C)Nc1nc2c(c(=O)n1-c1ccc(C(=O)NC)cc1)C[C@@H](C)N(C(=O)c1ccc(Cl)c(Cl)c1)C2
Found: > 50 µM

Lookup: Entry to check: CC(C)Nc1nc2c(c(=O)n1-c1ccc3c(c1)CC(=O)N3)C[C@@H](C)N(C(=O)c1ccc(Cl)c(Cl)c1)C2
Found: 48.9 µM

Lookup: Entry to check: COc1ccccc1-n1c(NC2COC2)nc2c(c1=O)CCN(C(=O)c1ccc(Cl)c(Cl)c1)C2
Found: > 50 µM

Lookup: Entry to check: COc1ccc(CNc2nc3c(c(=O)[nH]2)CC(c2ccc(F)cc2)N(C(=O)c2ccc(Cl)c(Cl)c2)C3)cc1 (stereo not shown)
Found: > 50 µM

Lookup: Entry to check: CC(C)Nc1nc2c(c(=O)n1-c1ccc(S(C)(=O)=O)cc1)CCN(C(=O)c1ccc(Cl)c(Cl)c1)C2
Found: > 50 µM

Lookup: Entry to check: CC(C)Nc1nc2c(c(=O)n1-c1ccc(-c3cn[nH]c3)cc1)CCN(C(=O)c1ccc(Cl)c(Cl)c1)C2
Found: > 50 µM

Lookup: Entry to check: CC(C)Nc1nc2c(c(=O)n1-c1ccc(C(=O)NC3(C(=O)O)CC3)cc1)C[C@@H](C)N(C(=O)c1ccc(Cl)c(Cl)c1)C2
Found: > 50 µM

Lookup: Entry to check: CC(C)Nc1nc2c(c(=O)n1-c1ccc(-c3nccs3)cc1)CCN(C(=O)c1ccc(Cl)c(Cl)c1)C2
Found: > 50 µM

---

Method notes: in vitro
Type: cell-based
Condition set: human, HepG2 or HepG2.117 cells, 3-days incubation (unmarked values), ATPlite; mean value
Endpoint name: CC50 at 3 days

compound="COc1ccc(CNc2nc3c(c(=O)n2-c2ccc(C(N)=O)cc2)CCN(C(=O)c2ccc(Cl)c(Cl)c2)C3)cc1 [Compound C149]" result="23.2 µM"
compound="CNC(=O)c1ccc(-n2c(N[C@H](C)c3ccccn3)nc3c(c2=O)C[C@@H](C)N(C(=O)c2ccc(Cl)c(Cl)c2)C3)cc1 (single isomer, unassigned) [Compound C320]" result="> 50 µM"
compound="CNC(=O)c1cnc(-n2c(NC(C)C)nc3c(c2=O)C[C@@H](C)N(C(=O)c2ccc(Cl)c(Cl)c2)C3)cn1 [Compound C288]" result="> 50 µM"

Lookup: Quick one: CC50 at 3 days of COc1ccc(CNc2nc3c(c(=O)n2-c2cc(OC)cc(S(C)(=O)=O)c2)CCN(C(=O)c2ccc(Cl)c(Cl)c2)C3)cc1 [Compound C87] ?
Found: > 50 µM

Lookup: Entry to check: COc1ccc(CNc2nc3c(c(=O)[nH]2)CCN(C(=O)c2ccc(C#N)c(Cl)c2)C3)cc1 [Compound C82]
Found: > 50 µM

Lookup: Entry to check: CC(C)Nc1nc2c(c(=O)n1-c1ccc(S(C)(=O)=O)cc1)CCN(C(=O)c1ccc(Cl)c(C(C)C)c1)C2 [Compound C222]
Found: > 50 µM

Lookup: Entry to check: CNC(=O)c1ccc(-n2c(NC(C)C)nc3c(c2=O)C[C@@H](C)N(C(=O)c2ccc(Cl)c(Cl)c2)C3)c(Cl)c1 [Compound C293]
Found: 34.9 µM

Lookup: Entry to check: CNC(=O)c1ccc(-n2c(N3CCC3(C)C)nc3c(c2=O)C[C@@H](C)N(C(=O)c2ccc(Cl)c(Cl)c2)C3)cc1 [Compound C303]
Found: 26.7 µM

Lookup: Entry to check: CNC(=O)c1ccc(-n2c(NC(C)C)nc3c(c2=O)C[C@@H](C)N(C(=O)c2ccc(Cl)c(Cl)c2)C3)cc1 [Compound C157]
Found: > 50 µM

Lookup: Entry to check: CC(C)Nc1nc2c(c(=O)n1-c1ccc(S(C)(=O)=O)cc1)CCN(C(=O)c1cc3ncccc3[nH]1)C2 [Compound C368]
Found: > 50 µM

Lookup: Entry to check: COc1ccc(CNc2nc3c(c(=O)n2-c2ccc(N4CCOCC4)cc2)CCN(C(=O)c2ccc(Cl)c(Cl)c2)C3)cc1 [Compound C128]
Found: > 50 µM

Lookup: Entry to check: CNC(=O)c1ccc(-n2c(NC3CC3)nc3c(c2=O)C[C@@H](C)N(C(=O)c2ccc(Cl)c(Cl)c2)C3)cc1 [Compound C329]
Found: > 50 µM

Lookup: Entry to check: COc1ccc(CNc2nc3c(c(=O)n2-c2ccc(S(C)(=O)=O)cc2)CCN(C(=O)c2ccc(Cl)c(Cl)c2)C3)cc1 [Compound C84]
Found: > 50 µM

Lookup: Entry to check: CC(C)Nc1nc2c(c(=O)n1-c1ccc(S(C)(=O)=O)cc1)CCN(C(=O)c1cc3ccc(F)cc3[nH]1)C2 [Compound C137]
Found: > 50 µM

Lookup: Entry to check: CC(C)Nc1nc2c(c(=O)n1-c1ccc(S(C)(=O)=O)cc1)CCN(C(=O)c1ccc(Cl)c(C3CC3)c1)C2 [Compound C225]
Found: > 50 µM

Lookup: Entry to check: Cc1noc(C)c1-c1ccc(-n2c(NC(C)C)nc3c(c2=O)C[C@@H](C)N(C(=O)c2ccc(Cl)c(Cl)c2)C3)cc1 [Compound C211]
Found: > 50 µM

Lookup: Entry to check: COc1ccccc1-n1c(NC2CCc3ccccc32)nc2c(c1=O)CCN(C(=O)c1ccc(Cl)c(Cl)c1)C2 (centres unmarked) [Compound C55]
Found: 23.6 µM
